These entries and their values trace back to patent US5607922A.

- Test system: vaccinia virus (VV)
- Run Description: microbe, parasite or virus in culture
- Format: cell-based
- Cond: Orthopoxvirus vaccinia, E6SM, read-out: Minimum inhibitory concentration Vaccinia virus
Measured EC50, listed per entry.

{"columns": ["Compound", "Readout Unit", "Relation Symbol", "EC50"],
 "data": [
  ["Nc1nccc2c1ncn2[C@@H]1C[C@H](CO)[C@@H](O)[C@H]1O (relative stereo)", "µg/mL", "=", 0.2],
  ["O=c1[nH]c(=O)n([C@H]2C[C@H](O)[C@@H](CO)O2)cc1/C=C/Br", "µg/mL", "=", 0.7],
  ["Nc1ncnc2c1ncn2C[C@H](O)CO [(S)-DHPA, (S)-9-(2,3-dihydroxypropyl)-adenine]", "µg/mL", "=", 20],
  ["NC(=O)c1ncn(C2O[C@H](CO)[C@@H](O)[C@H]2O)n1 (some centres unmarked)", "µg/mL", "=", 70],
  ["CCc1cn([C@@H]2CO[C@H](CO)[C@@H](O)C2)c(=O)[nH]c1=O", "µg/mL", ">", 200]
]}

====

Form field: MCC (one value per entry).
- Run Description: in vitro
- Cond: human, e6 sm cells, Minimum cytotoxic concentration, Table III; required to cause a microscopically detectable alteration of normal cell morphology
Measure: MCC

{"columns": ["Molecule", "Measure", "Assay Value"],
 "data": [
  ["NC(=O)c1ncn(C2O[C@H](CO)[C@@H](O)[C@H]2O)n1 (some centres unmarked) [Ribavirin]", "MCC", "> 400 µg/mL"],
  ["Nc1ncnc2c1ncn2C[C@H](O)CO [(S)-DHPA, (S)-9-(2,3-dihydroxypropyl)-adenine]", "MCC", "≥ 200 µg/mL"],
  ["O=c1[nH]c(=O)n([C@H]2C[C@H](O)[C@@H](CO)O2)cc1/C=C/Br [BVDU, E-5-(2-bromovinyl)-2'-deoxyuridine]", "MCC", "≥ 200 µg/mL"],
  ["CCc1cn([C@@H]2CO[C@H](CO)[C@@H](O)C2)c(=O)[nH]c1=O [Compound 23]", "MCC", "> 200 µg/mL"],
  ["Nc1nccc2c1ncn2[C@@H]1C[C@H](CO)[C@@H](O)[C@H]1O (relative stereo) [C-c^3 Ado, carbocyl 3-deaza adenosine]", "MCC", "≥ 200 µg/mL"]
]}

====

Measured EC50, listed per entry for reference.
- System: herpes simplex virus type 1 (HSV-1) (KOS)
- Run Description: microbe, parasite or virus in culture
- Assay type: cell-based
- Cond: Human alphaherpesvirus 1, E6SM; read-out: Minimum inhibitory concentration Herpes simplex virus-1 (KOS)

{"columns": ["Molecule", "EC50"],
 "data": [
  ["CCc1cn([C@@H]2CO[C@H](CO)[C@@H](O)C2)c(=O)[nH]c1=O [Compound 23]", "< 0.04 µg/mL"],
  ["Nc1nccc2c1ncn2[C@@H]1C[C@H](CO)[C@@H](O)[C@H]1O (relative stereo) [C-c^3 Ado, carbocyl 3-deaza adenosine]", "> 200 µg/mL"],
  ["Nc1ncnc2c1ncn2C[C@H](O)CO [(S)-DHPA, (S)-9-(2,3-dihydroxypropyl)-adenine]", "> 200 µg/mL"]
]}

====

- Test system: herpes simplex virus type 1 (HSV-1) (KOS)
- Run Description: microbe, parasite or virus in culture
- Assay type: cell-based
- Cond: Human alphaherpesvirus 1, E6SM; Table I; E6 SM cells; required to reduce virus-induced cytopathogenesis by 50%; read-out: Minimum inhibiting concentration ED50 HSV-1 (KOS)

{"columns": ["Compound", "Relation Symbol", "EC50 (µg/mL)"],
 "data": [
  ["Nc1nccc2c1ncn2[C@@H]1C[C@H](CO)[C@@H](O)[C@H]1O (relative stereo)", ">", 400],
  ["NC(=O)c1ncn(C2O[C@H](CO)[C@@H](O)[C@H]2O)n1 (stereo partly shown)", "=", 70],
  ["Nc1nc(O)c2ncn([C@@H]3CO[C@H](CO)[C@@H](O)C3)c2n1", "=", 0.2],
  ["Nc1ccn([C@@H]2CO[C@H](CO)[C@@H](O)C2)c(=O)n1", "=", 0.7],
  ["O=c1[nH]c(=O)n([C@H]2C[C@H](O)[C@@H](CO)O2)cc1I", "=", 0.2],
  ["Cc1cn([C@@H]2CO[C@H](CO)[C@@H](O)C2)c(=O)[nH]c1=O", "=", 40],
  ["O=c1[nH]c(=O)n([C@@H]2CO[C@H](CO)[C@@H](O)C2)cc1I", "=", 0.07]
]}
